Reference for the values: ChEMBL document CHEMBL4138123

- System: TK-10
- PROTOCOL TEXT: Cytotoxicity against human TK10 cells assessed as cell growth at 0.01 uM after 48 hrs by sulforhodamine B assay relative to control
- Format: functional
- CONDITIONS: TK-10, 48 h, read-out: Activity
Classify by measured growth at 0.01 µM: Fulfilled if it is equal to or exceeds 90%, Not fulfilled if it is smaller.

1) COc1ccc(C(=O)/C=C/c2cc(-c3cc(OC)c(OC)c(OC)c3)n[nH]2)cc1OC; Not fulfilled
2) COc1cc(C(=O)/C=C/c2cc(-c3ccc4c(c3)OCO4)n[nH]2)cc(OC)c1OC; Fulfilled
3) COc1ccc(C(=O)/C=C/c2cc(-c3ccc(OC)c(OC)c3)n[nH]2)cc1OC; Fulfilled
4) COc1ccc(-c2cc(/C=C/C(=O)c3ccc(N)cc3)[nH]n2)cc1; Fulfilled
5) COc1ccc(-c2cc(/C=C/C(=O)c3ccc(N)cc3)[nH]n2)cc1OC; Fulfilled

====

- Test system: M14
- PROTOCOL TEXT: Cytotoxicity against human M14 cells assessed as growth inhibition after 48 hrs by sulforhodamine B assay
- Type: functional
- CONDITIONS: M14, 48 h
OUTCOME MEASURE: LC50 (concentration killing 50% of cells) (µM)

1. COc1ccc(-c2cc(/C=C/C(=O)c3cc(OC)c(OC)c(OC)c3)[nH]n2)cc1OC; 7.54
2. COc1ccc(-c2cc(/C=C/C(=O)c3ccc(N)cc3)[nH]n2)cc1OC; 15
3. COc1ccc(C(=O)/C=C/c2cc(-c3ccc4c(c3)OCO4)n[nH]2)cc1OC; 58.4
4. COc1cc(C(=O)/C=C/c2cc(-c3ccc4c(c3)OCO4)n[nH]2)cc(OC)c1OC; 37.8
5. COc1ccc(-c2cc(/C=C/C(=O)c3ccc(OC)c(OC)c3)[nH]n2)cc1; 13.8

====

- Test system: 786-0
- PROTOCOL TEXT: Cytotoxicity against human 786-0 cells assessed as cell growth at 100 uM after 48 hrs by sulforhodamine B assay relative to control
- Type: functional
- CONDITIONS: 786-0, 48 h, read-out: Activity
OUTCOME MEASURE: growth at 100 µM (%)

1. COc1ccc(C(=O)/C=C/c2cc(-c3ccc(OC)c(OC)c3)n[nH]2)cc1OC; -32
2. COc1cc(-c2cc(/C=C/C(=O)c3ccc(Cl)c(Cl)c3)[nH]n2)cc(OC)c1OC; -10
3. COc1ccc(C(=O)/C=C/c2cc(-c3ccc4c(c3)OCO4)n[nH]2)cc1OC; -83
4. COc1cc2c(cc1OC)C(=O)/C(=C/c1cc(-c3ccc4c(c3)OCO4)n[nH]1)C2; -93
5. COc1cc(-c2cc(/C=C/C(=O)c3ccc(F)c(F)c3)[nH]n2)cc(OC)c1OC; -47
6. COc1ccc(-c2cc(/C=C/C(=O)c3ccc(OC)c(OC)c3)[nH]n2)cc1; -96
7. COc1cc(C(=O)/C=C/c2cc(-c3cc(OC)c(OC)c(OC)c3)n[nH]2)cc(OC)c1OC; -98
8. COc1ccc(-c2cc(/C=C/C(=O)c3ccc(N)cc3)[nH]n2)cc1OC; -97

====

- Tested on: RPMI-8226
- PROTOCOL TEXT: Cytotoxicity against human RPMI8226 cells assessed as growth inhibition after 48 hrs by sulforhodamine B assay
- Format: functional
- CONDITIONS: RPMI-8226, 48 h
Class t: TGI at least 2 µM. Class f: TGI below 2 µM.

1. COc1ccc(C(=O)/C=C/c2cc(-c3ccc(OC)c(OC)c3)n[nH]2)cc1OC; t
2. COc1ccc(C(=O)/C=C/c2cc(-c3ccc4c(c3)OCO4)n[nH]2)cc1OC; t
3. COc1cc(C(=O)/C=C/c2cc(-c3cc(OC)c(OC)c(OC)c3)n[nH]2)cc(OC)c1OC; t
4. COc1ccc(C(=O)/C=C/c2cc(-c3cc(OC)c(OC)c(OC)c3)n[nH]2)cc1OC; f
5. COc1cc(-c2cc(/C=C/C(=O)c3ccc(F)c(F)c3)[nH]n2)cc(OC)c1OC; t
6. COc1ccc(-c2cc(/C=C/C(=O)c3cc(OC)c(OC)c(OC)c3)[nH]n2)cc1OC; f
